Test system: OVCAR-8 complex spheroid, growth inhibition
Assay: Anticancer human tumor OVCAR-8 cell line growth inhibition [Asc];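 further: spheroids exposed to agents for 7 days before readout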
Conditions: curve of first compound; second compound 3 µM
pIC50: −log10 of the molar value.
READOUT_NAME: pIC50

MOLECULE: CCN1CCN(Cc2ccc(Nc3ncc(F)c(-c4cc(F)c5nc(C)n(C(C)C)c5c4)n3)nc2)CC1 + CCN1C(C(=O)NC23CCC(C(=O)O)(CC2)CC3)C(c2cccc(Cl)c2F)C2(C(=O)Nc3cc(Cl)ccc32)C12CCCCC2
pIC50: < 6.00

MOLECULE: C=C(F)C(=O)N1CCN(c2nc(OCC3CCCN3C)nc3c2CCN(c2cccc4cccc(Cl)c24)C3)CC1CC#N (stereo unspecified) + CCN1C(C(=O)NC23CCC(C(=O)O)(CC2)CC3)C(c2cccc(Cl)c2F)C2(C(=O)Nc3cc(Cl)ccc32)C12CCCCC2
pIC50: 5.56

MOLECULE: COc1c(OCCCN2CCOCC2)ccc2c3n(c(=NC(=O)c4cnc(N)nc4)nc12)CCN3 + CCN1C(C(=O)NC23CCC(C(=O)O)(CC2)CC3)C(c2cccc(Cl)c2F)C2(C(=O)Nc3cc(Cl)ccc32)C12CCCCC2
pIC50: < 6.00

MOLECULE: O=C(c1ccc(F)c(F)c1Nc1ccc(I)cc1F)N1CC(O)([C@@H]2CCCCN2)C1 + CCN1C(C(=O)NC23CCC(C(=O)O)(CC2)CC3)C(c2cccc(Cl)c2F)C2(C(=O)Nc3cc(Cl)ccc32)C12CCCCC2
pIC50: < 6.00

MOLECULE: O=C(c1cc(Cc2n[nH]c(=O)c3ccccc23)ccc1F)N1CCN(C(=O)C2CC2)CC1 + CCN1C(C(=O)NC23CCC(C(=O)O)(CC2)CC3)C(c2cccc(Cl)c2F)C2(C(=O)Nc3cc(Cl)ccc32)C12CCCCC2
pIC50: < 5.00

# input for lookup
stdin: Quick one: pIC50 for CNC(C)C(=O)NC1CN(S(=O)(=O)c2cccc(S(=O)(=O)N3CCC4CCC(C(=O)NC(c5ccccc5)c5ccccc5)N4C(=O)C(NC(=O)C(C)NC)C3)c2)CCC2CCC(C(=O)NC(c3ccccc3)c3ccccc3)N2C1=O (stereo unspecified) + CCN1C(C(=O)NC23CCC(C(=O)O)(CC2)CC3)C(c2cccc(Cl)c2F)C2(C(=O)Nc3cc(Cl)ccc32)C12CCCCC2 ?
stdout: < 6.00

* * *

# maps each entry to its viability, T/C
Tested on: OVCAR-8 complex spheroid, growth inhibition
Experiment: Anticancer human tumor OVCAR-8 cell line growth inhibition [Asc];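 further: spheroids exposed to agents for 7 days before readout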;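 on viability, T/C: percent viability relative to DMSO vehicle wells taken as 100%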
Conditions: second compound 3 µM; first compound 1 µM; stronger effect = lower value
Numbers only; they are read as %.

Example cases with answers are listed next.
COMPOUND: O=C(c1ccc(F)c(F)c1Nc1ccc(I)cc1F)N1CC(O)([C@@H]2CCCCN2)C1 + CCN1C(C(=O)NC23CCC(C(=O)O)(CC2)CC3)C(c2cccc(Cl)c2F)C2(C(=O)Nc3cc(Cl)ccc32)C12CCCCC2
viability, T/C (%): 161

COMPOUND: CNC(C)C(=O)NC1CN(S(=O)(=O)c2cccc(S(=O)(=O)N3CCC4CCC(C(=O)NC(c5ccccc5)c5ccccc5)N4C(=O)C(NC(=O)C(C)NC)C3)c2)CCC2CCC(C(=O)NC(c3ccccc3)c3ccccc3)N2C1=O (stereo not drawn) + CCN1C(C(=O)NC23CCC(C(=O)O)(CC2)CC3)C(c2cccc(Cl)c2F)C2(C(=O)Nc3cc(Cl)ccc32)C12CCCCC2
viability, T/C (%): 88

Attention now turns to another entry.
stdin: Please report the recorded viability, T/C for C=C(F)C(=O)N1CCN(c2nc(OCC3CCCN3C)nc3c2CCN(c2cccc4cccc(Cl)c24)C3)CC1CC#N (stereo not drawn) + CCN1C(C(=O)NC23CCC(C(=O)O)(CC2)CC3)C(c2cccc(Cl)c2F)C2(C(=O)Nc3cc(Cl)ccc32)C12CCCCC2 .
stdout: 128

* * *

Test system: OVCAR-8 complex spheroid, growth inhibition
Assay: Anticancer human tumor OVCAR-8 cell line growth inhibition [Asc];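 further: spheroids exposed to agents for 7 days before readout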;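 on viability, T/C: percent viability relative to DMSO vehicle wells taken as 100%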
Settings: second compound 0.0316 µM; first compound 0.316 µM; stronger effect = lower value
Source text: Multicellular complex tumor spheroid response to apoptosis pathway targeting inhibitors Alrizomadlin, Pelcitoclax, and Dasminapant in combination with a variety of drugs and investigational agents in selected tumor cell lines […] Compounds. […] If the clinical Cmax for an agent had not been determined, the highest concentration tested was 10 microM. […]
READOUT_NAME: viability, T/C (%)
Give the quantity in %, number only.

Look over these answered cases.
COMPOUND: O=C(c1cc(Cc2n[nH]c(=O)c3ccccc23)ccc1F)N1CCN(C(=O)C2CC2)CC1 + CNC(C)C(=O)NC1CN(S(=O)(=O)c2cccc(S(=O)(=O)N3CCC4CCC(C(=O)NC(c5ccccc5)c5ccccc5)N4C(=O)C(NC(=O)C(C)NC)C3)c2)CCC2CCC(C(=O)NC(c3ccccc3)c3ccccc3)N2C1=O
SYSTEM_UNDER_TEST: OVCAR-8 complex spheroid, growth inhibition
viability, T/C (%): 101
//
COMPOUND: O=C(c1ccc(F)c(F)c1Nc1ccc(I)cc1F)N1CC(O)([C@@H]2CCCCN2)C1 + Cc1c(S(C)(=O)=O)c(-c2cc(F)cc(N3CCN(c4ccc(NS(=O)(=O)c5ccc(NC(CCN6CCC(C(=O)OCCCP(=O)(O)O)CC6)CSc6ccccc6)c(S(=O)(=O)C(F)(F)F)c5)cc4)CC3)c2)c(-c2ccc(Cl)cc2)n1C(C)C
SYSTEM_UNDER_TEST: OVCAR-8 complex spheroid, growth inhibition
viability, T/C (%): 234
//
COMPOUND: C=CC(=O)N1CCN(c2nc(=O)n(-c3c(C)ccnc3C(C)C)c3nc(-c4c(O)cccc4F)c(F)cc23)C(C)C1 (stereo not drawn) + CNC(C)C(=O)NC1CN(S(=O)(=O)c2cccc(S(=O)(=O)N3CCC4CCC(C(=O)NC(c5ccccc5)c5ccccc5)N4C(=O)C(NC(=O)C(C)NC)C3)c2)CCC2CCC(C(=O)NC(c3ccccc3)c3ccccc3)N2C1=O
SYSTEM_UNDER_TEST: OVCAR-8 complex spheroid, growth inhibition
viability, T/C (%): 91.2

stdin: Observed viability, T/C on OVCAR-8 complex spheroid, growth inhibition for CCN1CCN(Cc2ccc(Nc3ncc(F)c(-c4cc(F)c5nc(C)n(C(C)C)c5c4)n3)nc2)CC1 + CNC(C)C(=O)NC1CN(S(=O)(=O)c2cccc(S(=O)(=O)N3CCC4CCC(C(=O)NC(c5ccccc5)c5ccccc5)N4C(=O)C(NC(=O)C(C)NC)C3)c2)CCC2CCC(C(=O)NC(c3ccccc3)c3ccccc3)N2C1=O , please.
stdout: 91.2

* * *

Listed here: items and their measured viability, T/C.
Test system: OVCAR-8 complex spheroid, growth inhibition
Assay: Anticancer human tumor OVCAR-8 cell line growth inhibition [Asc];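 further: spheroids exposed to agents for 7 days before readout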;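 on viability, T/C: percent viability relative to DMSO vehicle wells taken as 100%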
Settings: second compound 0.316 µM; first compound 0.000316 µM; stronger effect = lower value
Provide only the numeric value, understood in %.

stdin: Which value of viability, T/C has been reported for Cn1ncnc1[C@H]1c2n[nH]c(=O)c3cc(F)cc(c23)N[C@@H]1c1ccc(F)cc1 + CNC(C)C(=O)NC1CN(S(=O)(=O)c2cccc(S(=O)(=O)N3CCC4CCC(C(=O)NC(c5ccccc5)c5ccccc5)N4C(=O)C(NC(=O)C(C)NC)C3)c2)CCC2CCC(C(=O)NC(c3ccccc3)c3ccccc3)N2C1=O in the records?
stdout: 76.5

* * *

Tested on: OVCAR-8 complex spheroid, growth inhibition
Assay: Anticancer human tumor OVCAR-8 cell line growth inhibition [Asc];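 further: spheroids exposed to agents for 7 days before readout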;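 on viability, T/C: percent viability relative to DMSO vehicle wells taken as 100%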
Conditions: second compound 0.949 µM; first compound 0.0316 µM; stronger effect = lower value
Source text: Multicellular complex tumor spheroid response to apoptosis pathway targeting inhibitors Alrizomadlin, Pelcitoclax, and Dasminapant in combination with a variety of drugs and investigational agents in selected tumor cell lines […] Compounds. […] If the clinical Cmax for an agent had not been determined, the highest concentration tested was 10 microM. […]
Recorded viability, T/C, one value per entry.
Just the number in %, nothing appended.

COMPOUND: C=CC(=O)N1CCN(c2nc(=O)n(-c3c(C)ccnc3C(C)C)c3nc(-c4c(O)cccc4F)c(F)cc23)C(C)C1 (configuration not stated) + CCN1C(C(=O)NC23CCC(C(=O)O)(CC2)CC3)C(c2cccc(Cl)c2F)C2(C(=O)Nc3cc(Cl)ccc32)C12CCCCC2
READOUT_NAME: viability, T/C
UNIT: %
VALUE_OBSERVED: 87.3

stdin: Fill blank: measured viability, T/C of the compound Cn1ncnc1[C@H]1c2n[nH]c(=O)c3cc(F)cc(c23)N[C@@H]1c1ccc(F)cc1 + CCN1C(C(=O)NC23CCC(C(=O)O)(CC2)CC3)C(c2cccc(Cl)c2F)C2(C(=O)Nc3cc(Cl)ccc32)C12CCCCC2 is ____.
stdout: 109

* * *

Tested on: OVCAR-8 complex spheroid, growth inhibition
Assay: Anticancer human tumor OVCAR-8 cell line growth inhibition [Asc];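 further: spheroids exposed to agents for 7 days before readout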;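 on viability, T/C: percent viability relative to DMSO vehicle wells taken as 100%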
Settings: second compound 0.316 µM; first compound 3.16 µM; stronger effect = lower value
Recorded viability, T/C by entry
Write the number in % without appending the unit.

These recorded examples may help you get a feel for the data.
COMPOUND: C#Cc1c(F)ccc2cc(O)cc(-c3ncc4c(N5CC6CCC(C5)N6)nc(OCC56CCCN5CC(F)C6)nc4c3F)c12 (stereo not drawn) + CNC(C)C(=O)NC1CN(S(=O)(=O)c2cccc(S(=O)(=O)N3CCC4CCC(C(=O)NC(c5ccccc5)c5ccccc5)N4C(=O)C(NC(=O)C(C)NC)C3)c2)CCC2CCC(C(=O)NC(c3ccccc3)c3ccccc3)N2C1=O
SYSTEM_UNDER_TEST: OVCAR-8 complex spheroid, growth inhibition
VALUE_OBSERVED: 77.1

COMPOUND: C=CC(=O)N1CCN(c2nc(=O)n(-c3c(C)ccnc3C(C)C)c3nc(-c4c(O)cccc4F)c(F)cc23)C(C)C1 (stereo not drawn) + CNC(C)C(=O)NC1CN(S(=O)(=O)c2cccc(S(=O)(=O)N3CCC4CCC(C(=O)NC(c5ccccc5)c5ccccc5)N4C(=O)C(NC(=O)C(C)NC)C3)c2)CCC2CCC(C(=O)NC(c3ccccc3)c3ccccc3)N2C1=O
SYSTEM_UNDER_TEST: OVCAR-8 complex spheroid, growth inhibition
VALUE_OBSERVED: 79.6

COMPOUND: O=C(c1cc(Cc2n[nH]c(=O)c3ccccc23)ccc1F)N1CCN(C(=O)C2CC2)CC1 + CNC(C)C(=O)NC1CN(S(=O)(=O)c2cccc(S(=O)(=O)N3CCC4CCC(C(=O)NC(c5ccccc5)c5ccccc5)N4C(=O)C(NC(=O)C(C)NC)C3)c2)CCC2CCC(C(=O)NC(c3ccccc3)c3ccccc3)N2C1=O
SYSTEM_UNDER_TEST: OVCAR-8 complex spheroid, growth inhibition
VALUE_OBSERVED: 90.9

COMPOUND: C=CC(=O)N1CCN(c2nc(=O)n(-c3c(C)ccnc3C(C)C)c3nc(-c4c(O)cccc4F)c(F)cc23)C(C)C1 (stereo not drawn) + Cc1c(S(C)(=O)=O)c(-c2cc(F)cc(N3CCN(c4ccc(NS(=O)(=O)c5ccc(NC(CCN6CCC(C(=O)OCCCP(=O)(O)O)CC6)CSc6ccccc6)c(S(=O)(=O)C(F)(F)F)c5)cc4)CC3)c2)c(-c2ccc(Cl)cc2)n1C(C)C
SYSTEM_UNDER_TEST: OVCAR-8 complex spheroid, growth inhibition
VALUE_OBSERVED: 99

COMPOUND: C=C(F)C(=O)N1CCN(c2nc(OCC3CCCN3C)nc3c2CCN(c2cccc4cccc(Cl)c24)C3)CC1CC#N (stereo not drawn) + CNC(C)C(=O)NC1CN(S(=O)(=O)c2cccc(S(=O)(=O)N3CCC4CCC(C(=O)NC(c5ccccc5)c5ccccc5)N4C(=O)C(NC(=O)C(C)NC)C3)c2)CCC2CCC(C(=O)NC(c3ccccc3)c3ccccc3)N2C1=O
SYSTEM_UNDER_TEST: OVCAR-8 complex spheroid, growth inhibition
VALUE_OBSERVED: 3.15

stdin: API: value(readout= viability, T/C, system= OVCAR-8 complex spheroid, growth inhibition, query= O=C(c1cc(Cc2n[nH]c(=O)c3ccccc23)ccc1F)N1CCN(C(=O)C2CC2)CC1 + Cc1c(S(C)(=O)=O)c(-c2cc(F)cc(N3CCN(c4ccc(NS(=O)(=O)c5ccc(NC(CCN6CCC(C(=O)OCCCP(=O)(O)O)CC6)CSc6ccccc6)c(S(=O)(=O)C(F)(F)F)c5)cc4)CC3)c2)c(-c2ccc(Cl)cc2)n1C(C)C )
stdout: 161

stdin: Let us now turn to C=C(F)C(=O)N1CCN(c2nc(OCC3CCCN3C)nc3c2CCN(c2cccc4cccc(Cl)c24)C3)CC1CC#N (stereo not drawn) + Cc1c(S(C)(=O)=O)c(-c2cc(F)cc(N3CCN(c4ccc(NS(=O)(=O)c5ccc(NC(CCN6CCC(C(=O)OCCCP(=O)(O)O)CC6)CSc6ccccc6)c(S(=O)(=O)C(F)(F)F)c5)cc4)CC3)c2)c(-c2ccc(Cl)cc2)n1C(C)C
stdout: 31.5

stdin: Lookup C#Cc1c(F)ccc2cc(O)cc(-c3ncc4c(N5CC6CCC(C5)N6)nc(OCC56CCCN5CC(F)C6)nc4c3F)c12 (stereo not drawn) + Cc1c(S(C)(=O)=O)c(-c2cc(F)cc(N3CCN(c4ccc(NS(=O)(=O)c5ccc(NC(CCN6CCC(C(=O)OCCCP(=O)(O)O)CC6)CSc6ccccc6)c(S(=O)(=O)C(F)(F)F)c5)cc4)CC3)c2)c(-c2ccc(Cl)cc2)n1C(C)C
stdout: 94
